Test system: LNCaP-Vancouver prostate cells
Assay: In vitro LNCaP Vancouver prostate cell proliferation assay in lipid reduced medium
Type: cell-based
Conditions: read-out: pIC50 LNCaP_Vancouver prostate cell (converted)
# note: boundary value 1000 nM maps to f; IC50 below it maps to t

compound: O=C(C1CC1)N1CC[C@@H](CN2C(=O)C3(CC3)N=C2c2ccc(-c3ccc4ncccc4c3)cc2F)C1
experimental system: LNCaP-Vancouver prostate cells
answer label: t

compound: Cn1ncc2cc(-c3ccc(C4=NC5(CC5)C(=O)N4CC4CN(C(=O)C5CC5)C4)c(F)c3)ccc21
experimental system: LNCaP-Vancouver prostate cells
answer label: t

compound: Cc1cc(-c2cccc(NS(=O)(=O)C3CC3)c2)ccc1C1=NC2(CC2)C(=O)N1C[C@@H]1CCN(C(=O)C2CC2)C1
experimental system: LNCaP-Vancouver prostate cells
answer label: t

compound: O=C(C1CC1)N1CC[C@@H](CN2C(=O)C3(CCCC3)N=C2c2ccc(-c3ccc4cn[nH]c4c3)cc2F)C1
experimental system: LNCaP-Vancouver prostate cells
answer label: t

compound: NC(=O)c1cccc(-c2ccc(C3=NC4(CC4)C(=O)N3C[C@@H]3CCN(C(=O)C4CC4)C3)cc2)c1
experimental system: LNCaP-Vancouver prostate cells
answer label: f

compound: O=C(C1CC1)N1CC(CN2C(=O)C3(CC3)N=C2c2ccc(-c3nc4cc(F)ccc4s3)cc2F)C1
experimental system: LNCaP-Vancouver prostate cells
answer label: f

compound: O=C(C1CC1)N1CC[C@@H](CN2C(=O)C3(CC3)N=C2c2ccc(-c3cccc4ncccc34)cc2F)C1
experimental system: LNCaP-Vancouver prostate cells
answer label: t

compound: O=C(C1CC1)N1CC[C@@H](CN2C(=O)C3(CC3)N=C2c2ccc(-c3cccc4[nH]ncc34)cn2)C1
experimental system: LNCaP-Vancouver prostate cells
answer label: f

compound: Cc1cc(-c2ccc3cc(C#N)ccc3c2)ccc1C1=NC2(CC2)C(=O)N1CC1CN(C(=O)C2(F)CC2)C1
experimental system: LNCaP-Vancouver prostate cells
answer label: t

compound: O=C(C1CC1)N1CC(CN2C(=O)C3(CC3)N=C2c2ccc(-c3nc4ccc(Cl)cc4o3)cc2F)C1
experimental system: LNCaP-Vancouver prostate cells
answer label: f

compound: O=C(C1CC1)N1CC[C@@H](CN2C(=O)C3(CC3)N=C2c2ccc(-c3ccc4cccc(F)c4c3)cc2)C1
experimental system: LNCaP-Vancouver prostate cells
answer label: t

compound: Cn1cnc2cc(-c3ccc(C4=NC5(CC5)C(=O)N4CC4CN(C(=O)C5CC5)C4)cc3)ccc21
experimental system: LNCaP-Vancouver prostate cells
answer label: t

compound: Cc1cc(-c2ccc3ccc(C#N)nc3c2)ccc1C1=NC2(CC2)C(=O)N1CC1CN(C(=O)C2(C)CC2)C1
experimental system: LNCaP-Vancouver prostate cells
answer label: f

compound: COc1cccc2ccc(-c3ccc(C4=NC5(CC5)C(=O)N4CC4CN(C(=O)C5(O)CC5)C4)c(F)c3)cc12
experimental system: LNCaP-Vancouver prostate cells
answer label: t

compound: O=C(C1CC1)N1CC[C@@H](CN2C(=O)C3(CC3)N=C2c2ccc(-c3ccc4[nH]ccc4c3)cc2F)C1
experimental system: LNCaP-Vancouver prostate cells
answer label: t

compound: O=C(C1CC1)N1CC[C@@H](CN2C(=O)C3(CC3)N=C2c2ccc(-c3ccc4occc4c3)cn2)C1
experimental system: LNCaP-Vancouver prostate cells
answer label: f

compound: Cn1cc(-c2ccc(-c3ccc(C4=NC5(CC5)C(=O)N4CC4CN(C(=O)C5CC5)C4)c(F)c3)cc2)cn1
experimental system: LNCaP-Vancouver prostate cells
answer label: t

compound: CC(C)N1CCC2(CC1)N=C(c1ccc(-c3ccc4[nH]ccc4c3)cc1)N(C[C@@H]1CCN(C(=O)C3CC3)C1)C2=O
experimental system: LNCaP-Vancouver prostate cells
answer label: t

compound: O=C(C1CC1)N1CC(CN2C(=O)C3(CC3)N=C2c2ccc(-c3nc4cc(Cl)ccc4s3)cc2F)C1
experimental system: LNCaP-Vancouver prostate cells
answer label: f

compound: Cc1cc(C2=NC3(CC3)C(=O)N2C[C@@H]2CCN(C(=O)C3CC3)C2)ccc1-c1ccc2cc[nH]c2c1
experimental system: LNCaP-Vancouver prostate cells
answer label: t
